- Measurement Target: HIF-1 (HIF-1alpha/HIF-1beta (ARNT) heterodimer) (Homo sapiens?, UniProt Q16665;P27540 Q16665:1-826,P27540:2-789)
- Sequence (Q16665 whole entry, chain 1 of 2): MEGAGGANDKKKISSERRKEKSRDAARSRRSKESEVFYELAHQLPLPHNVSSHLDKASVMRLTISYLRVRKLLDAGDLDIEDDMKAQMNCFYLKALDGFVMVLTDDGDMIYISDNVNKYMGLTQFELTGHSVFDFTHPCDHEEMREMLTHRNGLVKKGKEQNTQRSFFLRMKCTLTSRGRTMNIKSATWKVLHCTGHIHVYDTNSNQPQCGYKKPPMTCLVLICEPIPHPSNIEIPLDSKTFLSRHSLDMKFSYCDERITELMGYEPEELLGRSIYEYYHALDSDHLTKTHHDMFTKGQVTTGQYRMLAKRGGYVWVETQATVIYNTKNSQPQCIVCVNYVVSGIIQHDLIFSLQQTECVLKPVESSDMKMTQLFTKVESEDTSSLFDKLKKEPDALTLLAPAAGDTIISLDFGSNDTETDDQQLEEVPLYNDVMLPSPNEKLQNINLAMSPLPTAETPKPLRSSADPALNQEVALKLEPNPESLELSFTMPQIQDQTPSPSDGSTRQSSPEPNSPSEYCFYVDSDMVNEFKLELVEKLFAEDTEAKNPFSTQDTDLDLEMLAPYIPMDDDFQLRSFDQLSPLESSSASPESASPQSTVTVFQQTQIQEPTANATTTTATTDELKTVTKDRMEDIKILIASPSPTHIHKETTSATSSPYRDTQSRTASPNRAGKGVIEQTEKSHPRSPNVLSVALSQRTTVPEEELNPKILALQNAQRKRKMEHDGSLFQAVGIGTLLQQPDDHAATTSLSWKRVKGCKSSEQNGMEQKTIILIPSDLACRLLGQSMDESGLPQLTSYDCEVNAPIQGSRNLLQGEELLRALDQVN
- Sequence (P27540 2-789, chain 2 of 2): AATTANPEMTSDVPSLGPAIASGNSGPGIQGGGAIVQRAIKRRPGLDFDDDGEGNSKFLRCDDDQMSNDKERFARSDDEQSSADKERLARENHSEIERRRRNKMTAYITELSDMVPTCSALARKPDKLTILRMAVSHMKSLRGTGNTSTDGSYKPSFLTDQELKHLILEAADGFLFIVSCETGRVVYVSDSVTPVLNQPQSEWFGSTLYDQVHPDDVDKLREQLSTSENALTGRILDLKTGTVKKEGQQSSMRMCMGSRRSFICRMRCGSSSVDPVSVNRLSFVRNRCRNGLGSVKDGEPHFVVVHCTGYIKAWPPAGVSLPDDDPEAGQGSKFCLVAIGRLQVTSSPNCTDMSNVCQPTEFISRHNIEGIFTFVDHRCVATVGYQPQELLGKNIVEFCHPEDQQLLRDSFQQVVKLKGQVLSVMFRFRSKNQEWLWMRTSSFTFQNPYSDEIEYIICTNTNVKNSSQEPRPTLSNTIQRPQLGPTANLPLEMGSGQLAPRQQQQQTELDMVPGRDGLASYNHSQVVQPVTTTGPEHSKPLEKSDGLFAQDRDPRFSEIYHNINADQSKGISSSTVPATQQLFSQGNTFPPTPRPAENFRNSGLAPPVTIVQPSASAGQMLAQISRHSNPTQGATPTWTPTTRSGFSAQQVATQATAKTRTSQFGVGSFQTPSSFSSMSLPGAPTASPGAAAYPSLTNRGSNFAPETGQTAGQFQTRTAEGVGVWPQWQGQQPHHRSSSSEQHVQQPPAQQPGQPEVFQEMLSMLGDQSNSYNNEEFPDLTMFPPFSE
- Assay Method Text: competition; TransAM
- Test Context: protein: extract; tags: none (endogenous, nuclear extract)
Let's look at some binders and their measured binding signal.
Endpoint Name: binding signal (ratio)

Binder	Observed
decoy 883/884 (dsDNA) DNA 1: AGAAGACGTGCAGGAT DNA 2: ATCCTGCACGTCTTCT	4.37
decoy 951 (dsDNA) DNA 1: CCAGCGTACGTCCCTCAGG DNA 2: CCTGAGGGACGTACGCTGG	2.91
decoy 955 (dsDNA) DNA 1: CCAGCGTACGTTCCTCAGG DNA 2: CCTGAGGAACGTACGCTGG	2.4
decoy 875/876 (dsDNA) DNA 1: TGCAGACGTGCAGGTC DNA 2: GACCTGCACGTCTGCA	2.63
decoy 965 (dsDNA) DNA 1: CCAGCTTACGTGCCTCAGG DNA 2: CCTGAGGCACGTAAGCTGG	1.61
decoy 943 (dsDNA) DNA 1: CCAGCGTACTTGCCTCAGG DNA 2: CCTGAGGCAAGTACGCTGG	2.83
decoy 979 (dsDNA) DNA 1: CCATCGTACGTGCCTCAGG DNA 2: CCTGAGGCACGTACGATGG	1.41
decoy 959 (dsDNA) DNA 1: CCAGCGAACGTGCCTCAGG DNA 2: CCTGAGGCACGTTCGCTGG	2.07
decoy 947 (dsDNA) DNA 1: CCAGCGTACGCGCCTCAGG DNA 2: CCTGAGGCGCGTACGCTGG	2.94
decoy 863/864 (dsDNA) DNA 1: AGCAGACGTGCAGGAT DNA 2: ATCCTGCACGTCTGCT	2.15
decoy 973 (dsDNA) DNA 1: CCAGAGTACGTGCCTCAGG DNA 2: CCTGAGGCACGTACTCTGG	1.34
decoy 869/870 (dsDNA) DNA 1: AGCAGACGTGCAGGGT DNA 2: ACCCTGCACGTCTGCT	2.28
decoy 927 (dsDNA) DNA 1: CCAGCGTTCGTGCCTCAGG DNA 2: CCTGAGGCACGAACGCTGG	3.16
decoy 817/818 (dsDNA) DNA 1: CTGCCGACGTGCGCTCCGGAG DNA 2: CTCCGGAGCGCACGTCGGCAG	4.81
decoy 833/834 (dsDNA) DNA 1: TCCAATGCGTGCAGTACT DNA 2: AGTACTGCACGCATTGGA	3.05
decoy 889/890 (dsDNA) DNA 1: TGCATACGTGCAGGTC DNA 2: GACCTGCACGTATGCA	4.14
decoy 887/888 (dsDNA) DNA 1: GGCTGCACCGTACGTGCTGATC DNA 2: GATCAGCACGTACGGTGCAGCC	1.89
decoy 989 (dsDNA) DNA 1: CCAGCGTACGTGCTTCAGG DNA 2: CCTGAAGCACGTACGCTGG	1.21
decoy 939 (dsDNA) DNA 1: CCAGCGTACATGCCTCAGG DNA 2: CCTGAGGCATGTACGCTGG	2.93
